# target_or_test_system: DYRK1A (Homo sapiens, UniProt Q13627)
# Construct: kinase domain of DYRK1A (126–490) was cloned into pET24a with C-terminal His-tag; His-tag (C); made in house; host or cells: E. coli BL21 (DE3) RIL
# test_name: Cook activity assay (ATP regenerative NADH consuming DYRK1A activity assay)
# Assay type: biochemical
# experimental_context: Cook assay, DYRK1A 0.5 µM, ATP 128 µM, DYRKtide 1 mM
Some compounds, each annotated with its measured pKi.
When answering, recall that pKi equals minus log10 of the concentration in mol/L, and write that number alone.

smiles_string	pKi
NS(=O)(=O)c1ccc(-c2cnc3[nH]cc(-c4cccnc4)c3c2)cc1	7.00

Consider the compound shown here: "C=CC(=O)Nc1cccc(C(=O)c2sc(Nc3ccc(N4CCN(C)CC4)cc3)nc2N)c1" What is its recorded pKi?
5.52

Consider the compound shown here: "CN1C(=O)[C@H]2CCC[C@H]2N(C2CCCC2)c2nc(Nc3ccc(C(N)=O)cc3)ncc21" What is its recorded pKi?
5.92

Consider the compound shown here: "O=c1ccc2cnc3ccc(-c4cn[nH]c4)cc3c2n1-c1ccc(F)cc1C(F)(F)F" What is its recorded pKi?
6.70

Consider the compound shown here: "COc1ccc(N)cc1-c1cnc(N)c(C(=O)c2cccnc2)n1" What is its recorded pKi?
5.80

Consider the compound shown here: "C=CC(=O)Nc1ccc(C(=O)c2sc(Nc3ccc(N4CCN(C)CC4)cc3OC)nc2N)cc1" What is its recorded pKi?
6.00
